Entries and their pEC50 values follow.
Biological target: PACAP-R2 (Homo sapiens, UniProt P32241)
Construct: expressed in transfected cells; host or cells: CHO cells
Sequence (P32241 31-457): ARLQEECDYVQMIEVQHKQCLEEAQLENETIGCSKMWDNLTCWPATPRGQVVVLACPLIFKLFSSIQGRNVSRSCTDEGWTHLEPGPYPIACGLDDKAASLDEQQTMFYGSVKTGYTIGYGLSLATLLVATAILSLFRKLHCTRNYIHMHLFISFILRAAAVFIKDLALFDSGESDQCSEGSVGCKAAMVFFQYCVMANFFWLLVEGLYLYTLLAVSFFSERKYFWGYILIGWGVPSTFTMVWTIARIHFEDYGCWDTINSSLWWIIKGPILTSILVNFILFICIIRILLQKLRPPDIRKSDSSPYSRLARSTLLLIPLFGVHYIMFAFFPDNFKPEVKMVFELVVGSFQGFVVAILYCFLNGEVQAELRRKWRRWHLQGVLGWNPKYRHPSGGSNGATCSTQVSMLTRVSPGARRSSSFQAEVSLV
Test: Cyclic AMP SPA on CHO cells transfected with PACAP-R2
Assay type: cell-based
Conditions: cAMP SPA, concentration at which 50% of maximum PACAP27 activity is achieved, NA = no detectable activities, read-out: R2 EC50
No end group written: not given here.
Kindly note that pEC50 refers to -log10 of the concentration in mol/L and answer with the value alone.

| SUBSTANCE | QUANTITY KIND | VALUE REPORTED |
| --- | --- | --- |
| HSDGIFTDSYSRYRKQMAVKKYLSAVRHGQT-NH2 [Peptide R3P15] | pEC50 | 7.92 |

Asked: Query pEC50 for HSDAVFTDNYTRLRKQMAAKKYLNSIWNKR [Peptide R3P132]
Given back: 8.00

Asked: Query pEC50 for HSDAVFTDNYTRLRKQLAAKKYLNDILNGGT [Peptide R3P27]
Given back: 8.19

----------
Molecular target: PACAP-R2 (Homo sapiens)
Construct: expressed in transfected cells; host or cells: CHO cells
Experiment: Cyclic AMP SPA on CHO cells transfected with PACAP-R2
Type: cell-based
Conditions: cAMP SPA, concentration at which 50% of maximum PACAP27 activity is achieved, NA = no detectable activities, read-out: R2 EC50
Experimental: CHO cells expressing the PACAP R3 were plated in 96-well plates (Costar) at 8×10^4 cell/well and grown at 37 C. for 24 hours in α MEM+nucleosides+glutamine (Giobco BRL), 10% FBS, 100 μg/ml Pen/Strep, 0.3 mg/ml glutamine, 1 mM HEPES, 0.5 mg/ml Geneticin (Gibco BRL). The media was removed and the plates were washed with PBS. […] Cyclic AMP in the cell extracts was quantitated using the cAMP SPA direct screening assay system (Amersham Pharmacia Biotech Inc, Piscataway, N.J.,). […]
No end group written: not given here.
Entries and their pEC50 values follow.
Kindly note that pEC50 refers to -log10 of the concentration in mol/L and answer with the value alone.

| SEQUENCE DATA | pEC50 |
| --- | --- |
| HSDAVFTDNYTRLRKQMAAKKYLNSIRNKR [Peptide R3P128] | 7.22 |
| HSDAVFTDNYTRLRKQMAAKKYLNSIKNKK [Peptide R3P161] | 7.22 |

Now consider a different sequence.
Asked: Query pEC50 for HSDAVFTDNYTRLRKQMAAKKYLNSIKNKV [Peptide R3P169]
Given back: 7.22
